Let's look at some compounds and their measured GI50.
- Tested on: DU-145 prostate
- ASSAY: NCI tumour cell line growth inhibition, 48 h
RESULT TYPE: GI50

[[record]]
mol_smiles = "CS(=O)(=O)c1ccc(Cl)c([N+](=O)[O-])c1"
result_type = "GI50"
recorded_value = "13.3 µM"

[[record]]
mol_smiles = "COc1ccc(-c2cc(-c3ccc(Cl)cc3)c(C#N)c(=O)n2CCCCC(=O)Nc2ccccc2N)cc1"
result_type = "GI50"
recorded_value = "16.3 µM"

[[record]]
mol_smiles = "COc1ccc(Cl)cc1Nc1nc(C(F)(F)F)ccc1C(=O)NN"
result_type = "GI50"
recorded_value = "2.42 µM"

[[record]]
mol_smiles = "Fc1cccc(COc2ccc(Nc3ncnc4sc(-c5ccco5)cc34)cc2Cl)c1"
result_type = "GI50"
recorded_value = "> 25 µM"

[[record]]
mol_smiles = "COc1ccc(-n2nnc3c(sc4ccccc43)c2=O)cc1"
result_type = "GI50"
recorded_value = "> 100 µM"


* * *

- Test system: HOP-92 NSCLC
- ASSAY: NCI tumour cell line growth inhibition, 48 h
RESULT TYPE: log10 of TGI (log10 of the value in µM)

[[record]]
compound = "C=C1CC(COc2ccc3c(C)c(C)c(=O)oc3c2C)(c2ccccc2)OC1=O (configuration not stated)"
result_type = "log10 of TGI"
recorded_value = 0.47

[[record]]
compound = "COc1cccc(N2C(=O)CS(=O)(=O)C2c2cccc(Oc3ccccc3)c2)c1 (configuration not stated)"
result_type = "log10 of TGI"
recorded_value = 1.84

[[record]]
compound = "COc1ccc(Cl)cc1Nc1nc(C(F)(F)F)ccc1C(=O)NN"
result_type = "log10 of TGI"
recorded_value = 1.60

[[record]]
compound = "NCCN(CCN(C(=O)Nc1ccccc1)c1ccccc1)C(=O)Nc1ccccc1"
result_type = "log10 of TGI"
recorded_value = 1.65

[[record]]
compound = "C=C1C(=O)O[C@@H]2C[C@@]3(C)CC(=O)C=C(C)[C@@H]3C[C@H]12"
result_type = "log10 of TGI"
recorded_value = 1.74

[[record]]
compound = "Cc1cc2c(C(C)C)c(O)c(O)c(C=Nc3cc(C(F)(F)F)ccc3Cl)c2c(O)c1-c1c(C)cc2c(C(C)C)c(O)c(O)c(C=Nc3cc(C(F)(F)F)ccc3Cl)c2c1O"
result_type = "log10 of TGI"
recorded_value = 1.73

[[record]]
compound = "O=C(c1ccccc1)c1c(CC(O)c2cccnc2)n(C(=O)c2ccccc2)c2ccccc12 (configuration not stated)"
result_type = "log10 of TGI"
recorded_value = 1.49

[[record]]
compound = "Cc1nnc2n1-c1ccccc1N(Cc1ccccc1)CC2"
result_type = "log10 of TGI"
recorded_value = 1.72

[[record]]
compound = "Nc1cc(N)c2nc(-c3ccccc3)c(Oc3ccc(F)cc3)nc2c1"
result_type = "log10 of TGI"
recorded_value = 1.47

[[record]]
compound = "COc1ccc(OC)c(-c2cc(-c3ccccc3)nn2-c2ccc(S(=O)(=O)NC(C)=O)cc2)c1"
result_type = "log10 of TGI"
recorded_value = 1.59

[[record]]
compound = "CNC(=S)NNc1ncnc2c1c(-c1ccc(Cl)cc1)cn2-c1ccc(C)cc1"
result_type = "log10 of TGI"
recorded_value = 1.49

